Assay summary: Plasma measurements after i.c.v. OT infusion in HFD-induced obese rats
Format: in vivo, rat
Conditions used: rat, plasma, 1.6 nmol/day/rat; i.c.v. OT 1.6 nmol/d, 14 days; mean ± SEM; read-out: plasma Oxytocin
Measurement label: level at 336 h (ng/mL)

- Sample smiles: "CC[C@H](C)[C@@H]1NC(=O)[C@H](Cc2ccc(O)cc2)NC(=O)[C@@H](N)CSSC[C@@H](C(=O)N2CCC[C@H]2C(=O)N[C@@H](CC(C)C)C(=O)NCC(N)=O)NC(=O)[C@H](CC(N)=O)NC(=O)[C@H](CCC(N)=O)NC1=O"
  Measurement label: "level at 336 h"
  Readout unit: "ng/mL"
  Recorded value: 0.0218
